test_summary: soluble on expression in E. coli; label from the status in PepcDB or PDB records
reported_metric: soluble on expression in E. coli

MSLARDYRWEGVPLKAYKTDGTHFRAITRQTLLGADEDERALGHQTRYFEIAPGGYSSLERHQHTHTVMILRGQGELILGDALHRIGRHDCIYIAPQTFHQFHASGDEPLGFLCIVDRERDRPRLPDDDELARMRALPGVGPKVRTEGHHHHHH : soluble
MPDGDFITLDRVEKVFDVRRKTGFLRSERRRVRAVDSLSFTVARGEMVGYIGPNGAGKSTTIKMLTGILTPSGGRLRVAGIDPSRERTRLAARIGVVFGQRTTLWWDLPLIDSYRLMHRMYRIPDGRYRENLDRCVELLELGDLLDVPVRQLSLGQRMRGDIAAALLHDPEVLYLDEPTIGLDVISKARVREFLRELNAERGTTVLLTTHDLQDIEQLCGRVMVIDHGRLMYDGPLAGLHEVGDSERTLVVDLARELPPIEAAPARVVKVEGPRQWLAFPASESAAPLVARIAAAYPLVDLSVREPDIEAVIAKMLQSMGDTPQPPPEQAEHVVSLEHHHHHH : soluble

----------
test_summary: soluble on expression in E. coli; label from the status in PepcDB or PDB records
reported_metric: soluble on expression in E. coli

MIRFEQVSKAYLGGRQALQGVDFHLRPAEMAFLTGHSGAGKSTLLKLICGIERPSAGHIWFGGHDISRLKNREVPFLRRQIGMIFQDHHLLLDRTVYDNVAMPLIIAGASSEDIRRRVSAALDKVGLLDKAKNFPIQLSGGEQQRVGIARAVVNKPAVLLADEPTGNLDDALSEGILRLFEEFNRVGVTVLMATHDTSLIARRRYPILTLSQGRMSGAHHGE : not soluble
MGSDKIHHHHHHMARLLSELQPSEFDITVVAIADTPPDVVSMLPDHVEVKHLKMTRRTALLQLGEISKIVKSTDILVCSLFHATAIGVPLGLLLQVPKLLVWQHSTSYSNQIRSAYYRLAYRAADRVLADSDAVMEMLVDSVGVPDQKISTLPIAGIDVKEYQPSKTHPSHENITVSTVGRLANVKGYDDLIRCARDIGDDLQFQIAGEGEERERLESKTPDNVNFQGMVPNEQIPQFLNNSDIYFQPSKYEGLCMAVIEAMACGLPVVASDVGGITESVVPGETGFLCRPRDIDCFSERLQQLSENPALRKQMGTAGRKRVISEYSQKALARQFRKAIDQTETV : not soluble

----------
test_summary: soluble on expression in E. coli; label from the status in PepcDB or PDB records
reported_metric: soluble on expression in E. coli

MGSDKIHHHHHHMMLQIPDVLSKAQVAQCRQMMDVADWTDGNATSGHQSALAKRNMQLPEGSPVARQIGDLIQDALGANATFFSAALPLKVFPPLFNRYEGGQAFDNHVDNAIRYLRGTGFRVRSDLSATLFLTEPQDYDGGELVIEDTYGQHRVKLPAGYMVLYPATSLHHVTPVTRGARVSSFFWIQSMVRDEGQRALLFELDTRIQQVAEEMGQKDSGVVGLTGVYHNLLRRWADA : not soluble
MKAVTYDTDSELAYIYVLPPKKNRNVRTEELRVNDCLLLDISQDGKIAGFECFGEAAHLCAPFAGKSRLYVKDSDGYHFRVCQHASVRSCYTVYRVTFCFSDGDYQEFAGFDLDGTMYHSAFLQRLTEKLEHHHHHH : not soluble
MTTLFISDLHLDPARPAITELFLDFLRTQVPGSDALYILGDLFEAWIGDDTPSTAADAVAEALHAVATTGVPVFFMPGNRDFLVGAAYAQRAGFRILPDPTVIDLYGQPTLLMHGDLLCTDDTAYQAFRAQTRDPAFQAQFLSQPLAARVAFAQQARAASHARQSELKQGDQAQFETVTDVAPAEVDATFVRYGLDRIIHGHTHRPAIHTVQAGGRTCTRVVLGDWYEQGSVLRVDADGLALEQLALLEHHHHHH : soluble
MAHHHHHHMSRLLKHYGSCKTAFFCCDIQEKFMGRIANSANCVFVANRFAGLHTALGTAHSVYIVTEQYPKGLGATSADIRLPPDAHVFSKKRFAMLVPQVMPLVDLPEVEQVVLWGFETHVCILQTAAALLDMKKKVVIAVDGCGSQSQGDHCTAIQLMQSWSGDGCYISTSESILMQLLKDASDPVFKTIAPLMKQTHPIRI : soluble
MVQEQMKLTGTLEGHTGWVTQIATYTRNDKTTVLSSSRDKTILVWDVDSVAPVDEGPIGRPVRSLTGHNHFVSDVVISSDGQFALSGSWDKTLRLWDLNQGVSTRQFISHTKDVLSVAFSADNRQIVSGSRDKSIKLWNTLAQCKYTITDDCHTDWVSTVRFSPSNRDPVIVSAGWDKVVKVWNLGNCRLKTNHIGHTGYVNTVTVSPDGSLCASGGKDGQAMLWDLNEGKHLYTLPGNDVINAMSFSPNRYWLCAAVGSSIKIWDLEDKKEIEELKPEIASSGSSRGSSPQCISLAWSQDGQTLFAGYTDNIIRVYQVSIRASN : not soluble
MGSDKIHHHHHHMTHLKIFLLLIVCALSVLDGKAQTGIALTDELNGKRIGVIGDSYVRNHKEPFENTWHYKFAKKHGMEYFNYGKNGNSIAYSSPRWGKAMYLRYAEMADSLDYVIVIGGHNDAFKLDSIGGIDNFKDKMEILCKGLVEKYPTAKIFFFTRWNCKNFKGSDSEKVVDAMIEVCGNYSIPIFDCARKGSIYADNDTFRRIYFQKSKNNTDTAHLNSKGHDRFLKVAESFLLQY : not soluble
MGSDKIHHHHHHMSNTVRAISPDITLFNKTLTFQEISQNTREAVIYIHGGAWNDPENTPNDFNQLANTIKSMDTESTVCQYSIEYRLSPEITNPRNLYDAVSNITRLVKEKGLTNINMVGHSVGATFIWQILAALKDPQEKMSEAQLQMLGLLQIVKRVFLLDGIYSLKELLIEYPEYDCFTRLAFPDGIQMYEEEPSRVMPYVKKALSRFSIDMHLVHSYSDELLTLRQTNCLISCLQDYQLSFKLYLDDLGLHNDVYKNGKVAKYIFDNIC : soluble
MGSDKIHHHHHHMAFTESDVYNNEAFFEQYMKRRYRENSPNEALEKPAFFQLISDVKGKRILDLGCGDAKFGEELLEKGCHSYTGIEGSELMYEKAKKQLENKNGAVHFLNLKDYTYPPSTFDLVTSRLALHYIEHLPIIFQNVYETLKTNGTFTFSVQHPIITSSFESLQTSGKRTSWLVDDYFKLGKRVEPWIDQEVIKYHRTTEEYFTLLQQAGFTITNLKEATPDQTYFQNAEEYERRLRIPLFLLFSCRK : not soluble
MAGASETYTHTLTDVPIDIKYDSDDYFISGYSYGADVYMSSVNRVKLDSEINEDTRKFKVVADLTNMKPGTHKVPLKVVNLPSGVNATVSPTTITVTMGKKKTKEFPLEHHHHHH : not soluble
GPGSMKTIRKRMRLSVSGRSSARSGMSSDTRLPAAVLERETKVINYSHSTSRAMAAQLENCVRLIRGYQASLQYCNEEIEGALLSLGVATTHSLISSITSVMEGLDTLSGVCRAMHEGYNEEVRHREDLHTSLTGAYISLKELHEATENELREVVAERDRKVAAFGKAVAYVEAVVAERMLWQEANGYNCAGLPVVEMSFSESCHEALRKFDDTVSEAQGEGHSNAESLLASTDVPQTLAKRWDNVENLRHTNGLPSARVLYVPPKDEVELLRNVLEMGTGDRALMWDVQQRERALQDSLTNIHVFGHSCLKALHSMREELAEFRQWFLTIDRKCEPIVVAMRKLGNGVCGLSSASDKNLPH : not soluble
MSLKFPRKGIPQEEVMRELEKYTSKDLSFSSGKILGSMCTLPHELAKEVFCMYMDRNLGDPGLHPGTKKIEEEVIEMLSDLLHLERGYGHIVSGGTEANILAVRAFRNLADVENPELILPKSAHFSFIKAGEMLGVKLIWADLNPDYTVDVKDVEAKISENTIGIVGIAGTTGLGVVDDIPALSDLARDYGIPLHVDAAFGGFVIPFAKELGYDLPDFDFKLKGVQSITIDPHKMGMAPIPAGGIVFRHKKYLRAISVLAPYLAGGKIWQATITGTRPGASVLAVWALIKHLGFEGYMEIVDRAMKLSRWFAEEIKKTPGAWLVREPMLNIVSFKTKNLRRVERELKSRGWGISAHRGYIRIVSHASCDGGHDEGHHHHHH : soluble

----------
test_summary: soluble on expression in E. coli; label from the status in PepcDB or PDB records
reported_metric: soluble on expression in E. coli

MLTIAMPKGRIFEEAVELLRRGDYALPPEFTESRKLVIDVPEENMRFILAKPMDVVTYVEHGVADLGIAGKDVLMEEERDVYELLDLQISRCHLAVAGLPGAKMNEIAPRVATKYPNIASTYFREQGEQVEIIRLNGSIELAPLIGLADRIVDIVSTGRTLRENGLVELERIAEVTSRLIVNPASYRLNGGDIERLVDRLAAVIPQP : not soluble
MAHHHHHHMGDKVEYGTSTVKSLGDTCRLVRALQGSTDPRLVSINSLLEGVVKSAQSLVKGTDSQKRFNMEFAEFCGVALMGLPDLEDAVDDLRVQENCANAAVNDQDDFDGISPAIFMREIIGYVVSRNTNVGAQYLEHIGRSAMAKFAGQESSEVTPKRLKSGMNDERHVQSVARKKQRTRPVAGKMGRAPTDDKSGVAATGRVFGVDGDEPKQRYKQSMPKGPPMLSRWVKPWTLLNQRVQGIILEHASNENTRRPPVCNYPPGKRSNITPFDICTAPSGPEMLNLWHARESMTSSSVGHCDPVGVAFDETALDHDSKGSEPSFFPSGDKKVCAFVSSELMANLVRYGVSSLEAPFKGAK : not soluble
TTPAPESNRKYIIAVTACPTGIAHTYMAEDALKKKAKEMGVDIKVETNGSEGIKNRLTAEDIARADGVIVAADKKVEMNRFDGKKLVNRPVSDGIRKTEELINLAISGEAPTFHGSDSAA : not soluble
